FYI, the data here is from PubChem BioAssay (NCI).

Below: a set of entries, each annotated with reported growth inhibition.
Experiment: NCI Yeast Anticancer Drug Screen. Data for the cln2 rad14 strain (AID 165);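 further: 0% = growth equal to vehicle treated cultures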
Settings: S. cerevisiae cln2 rad14 strain, at 5.0 µM (retest, dose inferred, filed as 0.5), hits give high values
Compounds without any hit were thinned out: in the full panel of roughly 79,000, 15% have a hit.
Write it as a number; the unit % goes unstated.

compound: OC(OC/C(I)=C(/I)COC(O)C(Cl)(Cl)Cl)C(Cl)(Cl)Cl (stereo not given)
growth inhibition [%]: -10
//
compound: CC(=O)Oc1c2c(c(C)c3ccccc13)C(=O)c1cccnc1C2=O
growth inhibition [%]: 10
//
compound: COc1ccc(C(O)/C(=N\NC(N)=S)c2nc3ccc([N+](=O)[O-])cc3[nH]c2=O)cc1OC (stereo not given)
growth inhibition [%]: 1
//
compound: CCC(COS(=O)(=O)c1ccc(C)cc1)(COS(=O)(=O)c1ccc(C)cc1)COS(=O)(=O)c1ccc(C)cc1
growth inhibition [%]: 3

Next item in the queue.
Ask: Given the entry "O=c1c(Cl)cc2nc3ccccc3sc-2c1Cl" , report its measured growth inhibition.
Reply: 1
